The origin of these recorded values is paper PMC11681868.

target: rabbit antibody A4 scFv H-T56A (rabbit); test: ITC; iTC200; 5 μM scFv in the cell, 50 μM peptide in the syringe; samples dialyzed against PBS; triplicate
Sequence (heavy, as listed by the source, chain 1 of 2): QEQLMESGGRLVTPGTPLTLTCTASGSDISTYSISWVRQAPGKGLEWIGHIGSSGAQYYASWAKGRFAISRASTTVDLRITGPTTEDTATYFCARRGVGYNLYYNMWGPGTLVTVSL
Sequence (light, as listed by the source, chain 2 of 2): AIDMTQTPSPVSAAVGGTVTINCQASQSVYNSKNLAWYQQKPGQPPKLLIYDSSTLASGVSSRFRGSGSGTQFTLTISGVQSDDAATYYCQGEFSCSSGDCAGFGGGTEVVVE
Where no end group is shown, it is not given here. [ ]: non-standard residue; d: D form. pS = N[C@@H](COP(=O)(O)O)C(=O)O
quantity_name: Kd (nM)
Express it in nM; write the number only.

Incoming: Dear colleague, I am looking for the recorded Kd of the following binder: RPHFPQF[pS]YSAS [phosphorylated Akt peptide]
Outgoing: 4
